Study system: human TLR7 (Homo sapiens)
Sequence (Q9NYK1 27-1049): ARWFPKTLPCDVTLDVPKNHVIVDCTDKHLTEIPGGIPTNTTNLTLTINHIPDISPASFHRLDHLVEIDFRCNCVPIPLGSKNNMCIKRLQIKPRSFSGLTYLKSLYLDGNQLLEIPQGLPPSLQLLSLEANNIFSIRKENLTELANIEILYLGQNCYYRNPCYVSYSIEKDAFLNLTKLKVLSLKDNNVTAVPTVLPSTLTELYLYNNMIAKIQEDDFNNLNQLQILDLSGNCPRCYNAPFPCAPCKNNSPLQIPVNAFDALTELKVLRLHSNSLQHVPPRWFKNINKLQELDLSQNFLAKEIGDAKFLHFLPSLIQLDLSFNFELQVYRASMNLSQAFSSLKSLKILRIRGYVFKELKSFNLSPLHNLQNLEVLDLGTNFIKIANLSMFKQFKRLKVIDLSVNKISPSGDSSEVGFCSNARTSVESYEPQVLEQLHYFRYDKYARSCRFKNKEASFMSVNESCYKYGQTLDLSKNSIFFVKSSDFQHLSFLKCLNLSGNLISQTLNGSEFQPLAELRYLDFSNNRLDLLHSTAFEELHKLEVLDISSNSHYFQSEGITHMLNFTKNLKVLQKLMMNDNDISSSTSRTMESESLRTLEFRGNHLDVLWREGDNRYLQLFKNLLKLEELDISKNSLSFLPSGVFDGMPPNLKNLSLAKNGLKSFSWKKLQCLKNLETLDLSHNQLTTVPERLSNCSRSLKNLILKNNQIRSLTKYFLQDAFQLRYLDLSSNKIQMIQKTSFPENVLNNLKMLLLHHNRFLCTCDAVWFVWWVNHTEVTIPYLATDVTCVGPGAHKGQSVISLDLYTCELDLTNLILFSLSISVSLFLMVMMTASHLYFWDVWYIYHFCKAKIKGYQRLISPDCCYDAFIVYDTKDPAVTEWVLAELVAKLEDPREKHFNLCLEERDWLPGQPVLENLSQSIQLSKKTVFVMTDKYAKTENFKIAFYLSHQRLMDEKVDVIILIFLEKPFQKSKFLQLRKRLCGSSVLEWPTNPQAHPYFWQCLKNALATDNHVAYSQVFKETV
Experiment notes: HEK293-Blue-hTLR-7 cells assay (SEAP reporter, R848 stimulation)
Assay type: cell-based
Test conditions: HEK293-Blue-hTLR7 cells, R848, 20 hrs; lowest tested concentration 0.0032
pIC50: −log10 of the molar value.
Readout: pIC50

Recorded pIC50, per entry:
C[C@H]1C[C@@H](NCc2ncc(N3CCNCC3)cn2)CN(c2ccc(C#N)c3ncccc23)C1    7.82
C[C@H]1C[C@@H](NCc2cnc(N3CCN[C@@H](C)C3)nc2)CN(c2ccc(C#N)c3ncccc23)C1    8.10

P: C[C@H]1C[C@@H](N2Cc3cc(N4CCNCC4)cnc3C2)CN(c2ccc(C#N)c3ncccc23)C1
Q: C[C@H]1C[C@@H](N2Cc3ccc(N4CCNCC4)cc3C2)CN(c2ccc(C#N)c3ncccc23)C1
Which entry shows the lesser value of pIC50 here, P or Q ? Bench note: the answer is the label of the chosen record. P
(P: 7.64, Q: 8.15)

###

Experiment notes: Human microsome stability assay
Format: in vitro ADME
Test conditions: human liver microsomes, 1 μM test compound, 0.5 mg/mL protein, 37° C., pH 7.4
Description: Human Microsome Stability Assay The human microsomal stability assay is used for early assessment of metabolic stability of a test compound in human liver microsomes. […] Human liver microsomes (Cat. NO.: 452117, Corning, USA; Cat. NO.: H2610, Xenotech, USA) were preincubated with test compound for 10 minutes at 37° C. in 100 mM potassium phosphate buffer, pH 7.4. […] Following precipitation and centrifugation, the amount of compound remaining in the samples were determined by LC-MS/MS. […]
Readout: HLM (mL/min/kg)

C[C@H]1C[C@@H](N2Cc3cc(N4CCNCC4)cnc3C2)CN(c2ccc(C#N)c3ncccc23)C1    7.3
C[C@H]1C[C@@H](N2Cc3ccccc3C2)CN(c2ccc(C#N)c3ncccc23)C1 [Example R2, reference compound]    18.4
C[C@H]1C[C@@H](NCc2ccc(C3CCNCC3)cc2)CN(c2ccc(C#N)c3ncccc23)C1    7.0
C[C@H]1C[C@@H](NCc2ccccc2)CN(c2ccc(C#N)c3ncccc23)C1 [Example R1, reference compound]    17.3
C[C@H]1C[C@@H](NCc2ccc(N3CCNCC3)nc2)CN(c2ccc(C#N)c3ncccc23)C1    7.4
C[C@H]1C[C@@H](N2Cc3ccc(N4CCNCC4)cc3C2)CN(c2ccc(C#N)c3ncccc23)C1    6.2
C[C@H]1C[C@@H](NCc2ccc(N3CCNCC3)cc2)CN(c2ccc(C#N)c3ncccc23)C1    7.3
C[C@H]1C[C@@H](NCc2cnc(N3CCNCC3)nc2)CN(c2ccc(C#N)c3ncccc23)C1    6.8
C[C@H]1C[C@@H](NCc2ccc(N3CCNCC3)cc2)CN(c2ccc(C#N)n3nccc23)C1    6.2

###

Study system: human TLR8 (Homo sapiens, UniProt Q9NR97)
Sequence (Q9NR97 27-1041): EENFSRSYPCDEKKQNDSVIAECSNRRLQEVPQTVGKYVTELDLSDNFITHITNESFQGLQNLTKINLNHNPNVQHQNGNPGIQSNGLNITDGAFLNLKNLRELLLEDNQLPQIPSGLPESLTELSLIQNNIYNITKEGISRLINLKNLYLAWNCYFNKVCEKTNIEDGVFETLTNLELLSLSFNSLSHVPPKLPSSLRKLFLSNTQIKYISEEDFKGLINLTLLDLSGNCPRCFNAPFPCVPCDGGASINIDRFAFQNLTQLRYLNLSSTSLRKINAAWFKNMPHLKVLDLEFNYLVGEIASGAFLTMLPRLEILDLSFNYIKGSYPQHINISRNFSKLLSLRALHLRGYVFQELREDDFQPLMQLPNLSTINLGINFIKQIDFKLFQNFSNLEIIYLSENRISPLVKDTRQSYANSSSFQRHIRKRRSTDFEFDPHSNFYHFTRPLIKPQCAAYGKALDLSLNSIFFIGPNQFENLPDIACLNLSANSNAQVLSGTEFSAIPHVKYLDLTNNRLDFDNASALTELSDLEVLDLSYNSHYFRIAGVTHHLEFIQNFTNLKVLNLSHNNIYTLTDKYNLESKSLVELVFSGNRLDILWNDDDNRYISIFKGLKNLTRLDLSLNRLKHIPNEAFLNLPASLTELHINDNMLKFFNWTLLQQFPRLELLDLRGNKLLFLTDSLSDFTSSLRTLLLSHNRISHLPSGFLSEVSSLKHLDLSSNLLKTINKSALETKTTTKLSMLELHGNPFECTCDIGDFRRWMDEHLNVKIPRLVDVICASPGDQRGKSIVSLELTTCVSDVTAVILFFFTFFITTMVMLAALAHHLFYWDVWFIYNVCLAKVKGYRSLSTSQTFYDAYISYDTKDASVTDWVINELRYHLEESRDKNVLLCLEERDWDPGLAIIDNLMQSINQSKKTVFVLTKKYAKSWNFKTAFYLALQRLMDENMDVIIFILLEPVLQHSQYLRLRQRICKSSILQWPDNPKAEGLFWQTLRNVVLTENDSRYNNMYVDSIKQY
Experiment notes: HEK293-Blue-hTLR-8 cells assay (SEAP reporter, R848 stimulation)
Test conditions: HEK293-Blue-hTLR8 cells, R848, 20 hrs; lowest tested concentration 0.0032
pIC50: −log10 of the molar value.
Readout: pIC50

C[C@H]1C[C@@H](NCc2ccccc2)CN(c2ccc(C#N)c3ncccc23)C1 [Example R1, reference compound]    7.70
C[C@H]1C[C@@H](N(C)Cc2ccc(N3CCNCC3)cc2)CN(c2ccc(C#N)c3ncccc23)C1    8.30
C[C@H]1C[C@@H](NCc2ccc(N3CCC(N)C3)cc2)CN(c2ccc(C#N)c3ncccc23)C1 (some centres unmarked)    8.22
C[C@H]1C[C@@H](NCc2ccc(C3CCNCC3)cc2)CN(c2ccc(C#N)c3ncccc23)C1    8.22
C[C@H]1C[C@@H](NCc2ccc(N3CCNCC3)cc2)CN(c2ccc(C#N)c3nccnc23)C1    8.40
C[C@H]1C[C@@H](N2Cc3cc(N4CCNCC4)cnc3C2)CN(c2ccc(C#N)c3ncccc23)C1    8.40

###

Study system: human TLR8 (Homo sapiens)
Experiment notes: HEK293-Blue-hTLR-8 cells assay (SEAP reporter, R848 stimulation)
Format: cell-based
Test conditions: HEK293-Blue-hTLR8 cells, R848, 20 hrs; lowest tested concentration 0.0032
Readout: IC50 (nM)

Below, each entry is followed by its recorded IC50 result.
Cc1cc(-c2ccc(CN[C@@H]3C[C@H](C)CN(c4ccc(C#N)c5ncccc45)C3)cc2)cc(C)n1    10
C[C@H]1C[C@@H](NCc2ccc(N3CCNCC3)cc2)CN(c2ccc(Cl)c3ncccc23)C1    5
C[C@H]1C[C@@H](N2Cc3ccccc3C2)CN(c2ccc(C#N)c3ncccc23)C1 [Example R2, reference compound]    110

1: C[C@H]1C[C@@H](NCc2ccc(N3CCNCC3)cn2)CN(c2ccc(C#N)c3ncccc23)C1
2: C[C@H]1C[C@@H](NCc2ccc(N3CCNCC3)cc2)CN(c2ccc(C#N)n3nccc23)C1
3: C[C@H]1C[C@@H](NCc2cccc(N3CCN(C)CC3)c2)CN(c2ccc(C#N)c3ncccc23)C1
4: C[C@H]1C[C@@H](NCc2cccc(N3CCNCC3)c2)CN(c2ccc(C#N)c3ncccc23)C1
# sort list by recorded IC50, greatest to least Please list the labels in the order you were asked to rank them. 2, 4, 1, 3
(2: 42 nM, 4: 9 nM, 1: 6 nM, 3: 4 nM)

###

Study system: human TLR7 (Homo sapiens)
Experiment notes: HEK293-Blue-hTLR-7 cells assay (SEAP reporter, R848 stimulation)
Test conditions: HEK293-Blue-hTLR7 cells, R848, 20 hrs; lowest tested concentration 0.0032
pIC50: −log10 of the molar value.
Readout: pIC50

C[C@H]1C[C@@H](NCc2ccc3c(c2)CCNC3)CN(c2ccc(C#N)c3ncccc23)C1    7.82
C[C@H]1C[C@@H](NCc2ccc(N3CCNCC3)cc2)CN(c2ccc(C#N)n3nccc23)C1    7.20
C[C@H]1C[C@@H](NCc2ccc(C3CCNCC3)cc2)CN(c2ccc(C#N)c3ncccc23)C1    7.49
C[C@H]1C[C@@H](NCc2cnc(N3CCNCC3)nc2)CN(c2ccc(C#N)c3ncccc23)C1    8.15
C[C@H]1C[C@@H](NCc2ccc(N3CCNCC3)cc2)CN(c2ccc(C#N)c3nccnc23)C1    7.52
C[C@H]1C[C@@H](NCc2ccc(N3CCNCC3)nc2)CN(c2ccc(C#N)c3ncccc23)C1    8.15

I: C[C@H]1C[C@@H](NCc2ccc(N3CCNCC3)cc2)CN(c2ccc(Cl)c3ncccc23)C1
II: C[C@H]1C[C@@H](NCc2cccc(N3CCNCC3)c2)CN(c2ccc(C#N)c3ncccc23)C1
Returns: the label, I or II , whose recorded pIC50 is the lower number. Lab note: record the label of whichever item you select. II
(II: 7.41, I: 7.64)

a: C[C@H]1C[C@@H](N(C)Cc2ccc(N3CCNCC3)cc2)CN(c2ccc(C#N)c3ncccc23)C1
b: CC(N[C@@H]1C[C@H](C)CN(c2ccc(C#N)c3ncccc23)C1)c1ccc(N2CCNCC2)cc1 (stereo partly drawn)
Between the entries labeled a and b , whose measured pIC50 is lower? In your reply, give the label of the chosen option. b
(b: 7.04, a: 7.82)
